# EXPERIMENT: RPMI8226 myeloma cell viability, profiling panel, resazurin fluorescence, basal, 24 h, PK04 Diversity Set (AID 1180);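 also: RPMI8826 multiple myeloma cell line at 5000 cells per well; test concentration not given here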
# CONDITION_INFO: higher = more signal
PROPERTY: z-score
Response field accepts a number only; no unit should be typed.

Item: C=C[C@@H](COC(C)=O)NS(=O)(=O)c1ccc(Br)cc1 | z-score: -0.978

Item: COC(=O)[C@@]1(Cc2ccccc2)[C@H]2c3cc(C(=O)N4CCCC4)[nH]c3C[C@H]2CN1C(=O)c1ccccc1 | z-score: -0.183

Item: CCOC(=O)[C@@H]1[C@@H]2C(=O)N(CC)C(=O)[C@@H]2C[C@@H]1Sc1ccccc1 | z-score: -0.458

Item: O=c1cccc(-c2cccc(Cl)c2)o1 | z-score: -0.4

Item: COCCOC(=O)N1C(=O)[C@@]2(c3cc(C#CCNC(N)=O)ccc31)[C@H](C(=O)N1CCCCCCC1)[C@H]1C(=O)O[C@H](c3ccccc3)[C@H](c3ccccc3)N1[C@@H]2c1ccc(O)cc1 | z-score: -0.928

Item: COCCOC(=O)N1C(=O)[C@@]2(c3cc(C#Cc4ccc(OC)cc4)ccc31)[C@H](C(=O)N1CCN(c3ncccn3)CC1)[C@H]1C(=O)O[C@H](c3ccccc3)[C@H](c3ccccc3)N1[C@@H]2c1ccccc1OCCO | z-score: 0.35

Item: COCCCNC(=O)[C@]1(CCC(=O)OC(C)(C)C)N=C(c2ccc(OCCCO)cc2)O[C@@H]1c1ccccc1 | z-score: -0.354
